# EXPERIMENTAL TARGET: androgen receptor (AR) (Homo sapiens, UniProt P10275, T878A)
# TEST METHOD NOTES: Androgen-induced PSA (6.1 kb)-luciferase reporter assay in LNCaP cells (R1881 1 nM)
# Format: cell-based
# Parameters: endogenous in cells; host or cells: LNCaP
# TEST SETTINGS: 24 h, read-out: PSA-Luc IC50 Range
MEASURED QUANTITY: IC50

                                   compound                       experimental_target  measurement
0  CS(=O)(=O)Nc1ccn(CCc2ccc3c(ccn3-c3cc(Cl)c(OCCCl)c(C#N)c3)c2)c(=O)c1  androgen receptor (AR) (Homo sapiens, UniProt P10275, T878A)       > 2 µM
1  CC(C)(c1ccc(OCc2ccnc(NS(C)(=O)=O)n2)cc1)c1cc(Cl)c(NCCCl)c(C#N)c1  androgen receptor (AR) (Homo sapiens, UniProt P10275, T878A)  0.5 to 2 µM
2  CC(C)(c1ccc(-c2ccn3nc(NS(C)(=O)=O)nc3c2)cc1)c1cc(Cl)c(OCCCl)c(C#N)c1  androgen receptor (AR) (Homo sapiens, UniProt P10275, T878A)  0.5 to 2 µM
3  CS(=O)(=O)Nc1nccc(COc2nnc(-c3cc(Cl)c(OCCCl)c(C#N)c3)s2)n1  androgen receptor (AR) (Homo sapiens, UniProt P10275, T878A)       > 2 µM
4  CS(=O)(=O)N1CCC[C@@H]1COc1ccc2c(ccn2-c2cc(Cl)c(OCCCl)c(C#N)c2)c1  androgen receptor (AR) (Homo sapiens, UniProt P10275, T878A)  0.5 to 2 µM
5  CS(=O)(=O)Nc1nccc(COc2ccc3c(ccn3-c3cc(Cl)c(OCCCl)c(C#N)c3)c2)n1  androgen receptor (AR) (Homo sapiens, UniProt P10275, T878A)     < 0.5 µM
6  CS(=O)(=O)Nc1ncc2ccc(COc3cccc(-c4cc(Cl)c(OCCCl)c(C#N)c4)c3)cc2n1  androgen receptor (AR) (Homo sapiens, UniProt P10275, T878A)       > 2 µM
7  CS(=O)(=O)N1CCC12CN(CCc1ccc3c(ccn3-c3cc(Cl)c(OCCCl)c(C#N)c3)c1)C2  androgen receptor (AR) (Homo sapiens, UniProt P10275, T878A)       > 2 µM
8  CS(=O)(=O)Nc1nccc(COc2ccc3c(c2)CC[C@H]3c2cc(Cl)c(OCCCl)c(C#N)c2)n1 [A35(S)]  androgen receptor (AR) (Homo sapiens, UniProt P10275, T878A)  0.5 to 2 µM
9  CC(C)(c1ccc(-c2ccc3nc(NS(C)(=O)=O)nnc3c2)cc1)c1cc(Cl)c(OCCCl)c(C#N)c1  androgen receptor (AR) (Homo sapiens, UniProt P10275, T878A)       > 2 µM

---

# EXPERIMENTAL TARGET: androgen receptor (AR) (Homo sapiens, UniProt P10275, T878A)
# Sequence (P10275 1-920 T878A): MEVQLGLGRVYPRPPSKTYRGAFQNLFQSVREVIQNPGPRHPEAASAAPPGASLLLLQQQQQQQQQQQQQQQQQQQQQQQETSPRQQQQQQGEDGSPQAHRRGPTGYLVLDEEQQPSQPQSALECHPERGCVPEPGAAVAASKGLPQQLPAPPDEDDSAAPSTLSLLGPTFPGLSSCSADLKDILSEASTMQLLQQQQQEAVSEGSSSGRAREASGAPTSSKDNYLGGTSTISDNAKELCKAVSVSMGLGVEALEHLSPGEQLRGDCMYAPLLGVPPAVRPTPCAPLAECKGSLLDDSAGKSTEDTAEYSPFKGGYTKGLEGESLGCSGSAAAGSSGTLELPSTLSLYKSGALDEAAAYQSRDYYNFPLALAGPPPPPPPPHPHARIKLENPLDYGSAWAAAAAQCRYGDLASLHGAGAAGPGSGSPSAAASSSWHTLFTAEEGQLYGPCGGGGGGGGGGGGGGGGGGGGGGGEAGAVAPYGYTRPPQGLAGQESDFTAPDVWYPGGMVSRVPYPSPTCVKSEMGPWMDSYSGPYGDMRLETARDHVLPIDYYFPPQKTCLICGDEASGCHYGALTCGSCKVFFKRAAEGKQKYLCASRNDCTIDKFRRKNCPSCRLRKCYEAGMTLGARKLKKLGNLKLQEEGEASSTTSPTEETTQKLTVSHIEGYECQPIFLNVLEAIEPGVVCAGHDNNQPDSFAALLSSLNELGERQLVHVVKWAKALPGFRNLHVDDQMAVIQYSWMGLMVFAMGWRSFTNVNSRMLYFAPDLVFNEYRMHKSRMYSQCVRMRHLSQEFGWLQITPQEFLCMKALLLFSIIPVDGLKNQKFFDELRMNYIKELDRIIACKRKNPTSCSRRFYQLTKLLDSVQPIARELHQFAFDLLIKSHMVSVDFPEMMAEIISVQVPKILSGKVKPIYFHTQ
# TEST METHOD NOTES: Androgen-induced PSA (6.1 kb)-luciferase reporter assay in LNCaP cells (R1881 1 nM)
# Type: cell-based
# Set-up: endogenous in cells; host or cells: LNCaP
# TEST SETTINGS: 24 h, read-out: PSA-Luc IC50 Range
pIC50: −log10 of the molar value.
MEASURED QUANTITY: pIC50

In [3]: df
Out[3]:
                                   molecule  measured_quantity   measurement
0  CS(=O)(=O)NCC1CCN(Cc2ccc3c(ccn3-c3cc(Cl)c(OCCCl)c(C#N)c3)c2)CC1 [Compound A236]              pIC50        < 5.70
1  CC(C)(c1ccc(-c2ccc3nc(NS(C)(=O)=O)ncc3c2)cc1)c1cc(Cl)c(OCCCl)c(C#N)c1 [Compound A51]              pIC50        > 6.30
2  CC(C)(c1ccc(OCc2ccnc(NS(C)(=O)=O)n2)cc1)c1cc(Cl)c(-c2ccc(Cl)cc2)c(C#N)c1 [Compound A2]              pIC50        < 5.70
3  CS(=O)(=O)Nc1nccc(COc2ccc3c(ccn3-c3cc(Cl)c(OC=C(Cl)Cl)c(C#N)c3)c2)n1 [Compound A128]              pIC50  5.70 to 6.30
4  CC(c1cc(Cl)c(OCCCl)c(C#N)c1)n1ccc(-c2ccc3nc(NS(C)(=O)=O)ncc3c2)n1 (centres unmarked) [Compound A142]              pIC50        < 5.70
5  CC(NC12CC(NS(C)(=O)=O)(C1)C2)c1ccc2c(ccn2-c2cc(Cl)c(OCCCl)c(C#N)c2)c1 (centres unmarked) [Compound A184]              pIC50        < 5.70
6  CC(C)(c1ccc(OCc2cncnc2N)cc1)c1cc(Cl)c(OCCCl)c(C#N)c1 [Compound A94]              pIC50  5.70 to 6.30
7  CC(C)(c1ccc(-c2ccc3cnc(NS(C)(=O)=O)nc3c2)cc1)c1cc(Cl)c(OCCCl)c(C#N)c1 [Compound A121]              pIC50        < 5.70

---

Entries and their IC50
# EXPERIMENTAL TARGET: androgen receptor (AR) (Homo sapiens, UniProt P10275, T878A)
# TEST METHOD NOTES: Androgen-induced PSA (6.1 kb)-luciferase reporter assay in LNCaP cells (R1881 1 nM)
# Format: cell-based
# Design: endogenous in cells; host or cells: LNCaP
# TEST SETTINGS: 24 h, read-out: PSA-Luc IC50 Range
MEASURED QUANTITY: IC50

                                   compound     measurement
0  CC(Oc1ccc2c(ccn2-c2cc(Cl)c(OCCCl)c(C#N)c2)c1)C1CN(S(C)(=O)=O)C1 (stereo not drawn) [Compound A159]  500 to 2000 nM
1  CS(=O)(=O)Nc1nccc(COc2ccc3c(-c4cc(Cl)c(OCCCl)c(C#N)c4)csc3c2)n1 [Compound A61]        < 500 nM
2  CC(C)(c1ccc(-c2ccc3nc(NS(C)(=O)=O)oc3c2)cc1)c1cc(Cl)c(OCCCl)c(C#N)c1 [Compound A254]  500 to 2000 nM

---

# EXPERIMENTAL TARGET: androgen receptor (AR) (Homo sapiens, UniProt P10275, T878A)
# TEST METHOD NOTES: Androgen-induced PSA (6.1 kb)-luciferase reporter assay in LNCaP cells (R1881 1 nM)
# Format: cell-based
# Parameters: endogenous in cells; host or cells: LNCaP
# TEST SETTINGS: 24 h, read-out: PSA-Luc IC50 Range
Entries and their IC50
MEASURED QUANTITY: IC50

In [3]: df
Out[3]:
                                   compound  measured_quantity     measurement
0  CS(=O)(=O)NC12CC(COc3ccc4c(ccn4-c4cc(Cl)c(OCC(F)(F)F)c(C#N)c4)c3)(C1)C2               IC50  500 to 2000 nM
1  CC(C)(c1ccc(-c2ccc3nc(NS(C)(=O)=O)nc(N)c3c2)cc1)c1cc(Cl)c(OCCCl)c(C#N)c1               IC50        < 500 nM
2  CS(=O)(=O)N1CCC2(CCC2Oc2ccc3c(ccn3-c3cc(Cl)c(OCCCl)c(C#N)c3)c2)CC1 (stereo not drawn)               IC50  500 to 2000 nM
